Can you tell me combination Emax for the items I'm about to list?
- System: A704 (Kidney Carcinoma)
- TEST METHOD NOTES: combination Emax (second highest fraction inhibited in the dose matrix, 72 h); higher = more inhibition; extreme values may be limits of the assay
// print number alone

The reported combination Emax value, A704 (Kidney Carcinoma), for C=CCn1c(=O)c2cnc(Nc3ccc(N4CCN(C)CC4)cc3)nc2n1-c1cccc(C(C)(C)O)n1 [AZD1775] + O=C(c1cc(Cc2n[nH]c(=O)c3ccccc23)ccc1F)N1CCN(C(=O)C2CC2)CC1 [Olaparib] (first compound max 1 µM, partner max 10 µM) reads 0.462

For the molecule CN(C)CCCOc1ccc(-c2ccc3ncc4c(c3c2)n(C2CCOCC2)c(=O)n4C)cn1 [AZD0156] + C=CCn1c(=O)c2cnc(Nc3ccc(N4CCN(C)CC4)cc3)nc2n1-c1cccc(C(C)(C)O)n1 [AZD1775] (first compound max 1 µM, partner max 1 µM) , the measured combination Emax on A704 (Kidney Carcinoma) was 0.379

----------
I'd appreciate it if you could supply combination Emax values for the items below.
- System: HSC-2 (Oral Cavity Carcinoma)
- TEST METHOD NOTES: combination Emax (second highest fraction inhibited in the dose matrix, 72 h); higher = more inhibition; extreme values may be limits of the assay

# combination Emax of Cc1c2c(nn1C)CSCc1cc(n(C)n1)CSc1cc(c3ccccc3c1)OCCCc1c(C(=O)O)n(C)c3c-2c(Cl)ccc13 [AZD5991] + C[C@@H](Nc1cc(F)cc(F)c1)c1cc(C(=O)N(C)C)cc2c(=O)cc(N3CCOCC3)oc12 [AZD8186] (first compound max 1 µM, 7x7, partner max 3 µM) = 0.963

# molecule C[C@@H](Oc1cc(-c2cnn(C3CCNCC3)c2)cnc1N)c1c(Cl)ccc(F)c1Cl [Crizotinib] + CC1=C(C(=CC=C1)Cl)NC(=O)C2=CN=C(S2)NC3=CC(=NC(=N3)C)N4CCN(CC4)CCO [Dasatinib] (first compound max 10 µM, 7x7, partner max 2 µM) ; its combination Emax = 0.923

Reported combination Emax ( CC(=O)c1c(C)c2cnc(Nc3ccc(N4CCNCC4)cn3)nc2n(C2CCCC2)c1=O [Palbociclib] + Cc1c2c(nn1C)CSCc1cc(n(C)n1)CSc1cc(c3ccccc3c1)OCCCc1c(C(=O)O)n(C)c3c-2c(Cl)ccc13 [AZD5991] (first compound max 10 µM, 7x7, partner max 1 µM) ) = 0.696

----------
- System: NB7 (Neuroblastoma)
- TEST METHOD NOTES: Bliss excess, mean over the matrix (fraction); higher = more synergy
MEASURED ENDPOINT: Bliss excess
Respond with the number and no other words.

Per the record, COc1cccc(OCCCN)c1-c1cc(Nc2cnc(C#N)cn2)n[nH]1 [Prexasertib] + CN(C)CCCOc1ccc(-c2ccc3ncc4c(c3c2)n(C2CCOCC2)c(=O)n4C)cn1 [AZD0156] (first compound max 1 µM, 7x7, partner max 1 µM) has Bliss excess of -0.0194

Entry COc1cccc(OCCCN)c1-c1cc(Nc2cnc(C#N)cn2)n[nH]1 [Prexasertib] + Cc1cc2ncnn2cc1Nc1ncc2c(n1)n(C1CCOCC1)c(=O)n2C [AZD7648] (first compound max 1 µM, 7x7, partner max 10 µM) — recorded Bliss excess = -0.0195

The molecule listed as C[C@@H]1COCCN1c1cc(C2([S@](C)(=N)=O)CC2)nc(-c2ccnc3[nH]ccc23)n1 [AZD6738] + C1CC(C1)(C(=O)[O-])C(=O)[O-].N.N.[Pt+2] [Carboplatin] (first compound max 10 µM, 7x7, partner max 10 µM) shows Bliss excess equal to -0.0115

C[C@@H](Nc1cc(F)cc(F)c1)c1cc(C(=O)N(C)C)cc2c(=O)cc(N3CCOCC3)oc12 [AZD8186] + C1CN(CCC1(C(=O)N[C@@H](CCO)C2=CC=C(C=C2)Cl)N)C3=NC=NC4=C3C=CN4 [AZD5363] (first compound max 10 µM, 7x7, partner max 10 µM) yielded Bliss excess of -0.0059

----------
- Test system: DG-75 (Burkitt's Lymphoma)
- TEST METHOD NOTES: combination Emax (second highest fraction inhibited in the dose matrix, 72 h); higher = more inhibition; extreme values may be limits of the assay
What combination Emax was measured for each of the following?
Please respond with just the number, no unit label.

// sample COc1nnc2ccc(N3CCC(c4ccc(OCCN5CCN(C)C(=O)[C@H]5C)cc4)CC3)nn12 [AZD5153] + CC1(C)CCC(CN2CCN(c3ccc(C(=O)NS(=O)(=O)c4ccc(NCC5CCOCC5)c([N+](=O)[O-])c4)c(Oc4cnc5[nH]ccc5c4)c3)CC2)=C(c2ccc(Cl)cc2)C1 [Venetoclax] (first compound max 1 µM, 7x7, partner max 1 µM) , its combination Emax was 0.887

The compound identified as CN(C)CCCOc1ccc(-c2ccc3ncc4c(c3c2)n(C2CCOCC2)c(=O)n4C)cn1 [AZD0156] + O=C(c1cc(Cc2n[nH]c(=O)c3ccccc23)ccc1F)N1CCN(C(=O)C2CC2)CC1 [Olaparib] (first compound max 3 µM, partner max 3 µM) registered its combination Emax at 0.481

Measured combination Emax, CC1(C)CCC(CN2CCN(c3ccc(C(=O)NS(=O)(=O)c4ccc(NCC5CCOCC5)c([N+](=O)[O-])c4)c(Oc4cnc5[nH]ccc5c4)c3)CC2)=C(c2ccc(Cl)cc2)C1 [Venetoclax] + CCN(CCO)CCCOc1ccc2c(Nc3cc(CC(=O)Nc4cccc(F)c4)[nH]n3)ncnc2c1 [AZD2811] (first compound max 1 µM, 7x7, partner max 1 µM) : 0.204

----------
- Test system: KINGS-1 (Low Grade Glioma)
- TEST METHOD NOTES: Bliss excess, mean over the matrix (fraction); higher = more synergy
Could you please report measured Bliss excess for the items listed next?
Would you mind answering with just the numeric figure?

Bliss excess measured on Cc1cc2ncnn2cc1Nc1ncc2c(n1)n(C1CCOCC1)c(=O)n2C [AZD7648] + C[C@@H]1COCCN1C2=NC(=NC(=C2)C3(CC3)[S@](=N)(=O)C)C4=C5C=CNC5=NC=C4 [AZD6738] (first compound max 10 µM, 7x7, partner max 10 µM) = 0.0412

Given item CCN(CCO)CCCOc1ccc2c(Nc3cc(CC(=O)Nc4cccc(F)c4)[nH]n3)ncnc2c1 [AZD2811] + O=C(c1cc(Cc2n[nH]c(=O)c3ccccc23)ccc1F)N1CCN(C(=O)C2CC2)CC1 [Olaparib] (first compound max 1 µM, 7x7, partner max 10 µM) , the value recorded as its Bliss excess is -0.0579

Query C[C@@H]1COCCN1c1cc(C2([S@](C)(=N)=O)CC2)nc(-c2ccnc3[nH]ccc23)n1 [AZD6738] + C1CC(C1)(C(=O)[O-])C(=O)[O-].N.N.[Pt+2] [Carboplatin] (first compound max 10 µM, 7x7, partner max 10 µM) yields Bliss excess of -0.0713

Reported Bliss excess of Cc1cc2ncnn2cc1Nc1ncc2c(n1)n(C1CCOCC1)c(=O)n2C [AZD7648] + C=CCn1c(=O)c2cnc(Nc3ccc(N4CCN(C)CC4)cc3)nc2n1-c1cccc(C(C)(C)O)n1 [AZD1775] (first compound max 10 µM, partner max 1 µM) : -0.0041

compound O=C(c1cc(Cc2n[nH]c(=O)c3ccccc23)ccc1F)N1CCN(C(=O)C2CC2)CC1 [Olaparib] + CN(CC[C@H](CSC1=CC=CC=C1)NC2=C(C=C(C=C2)S(=O)(=O)NC(=O)C3=CC=C(C=C3)N4CCC(CC4)[C@H](C5=CC=CC=C5C6=CC=C(C=C6)Cl)O)S(=O)(=O)C(F)(F)F)CCO [AZD4320] (first compound max 10 µM, 7x7, partner max 1 µM) , Bliss excess observed: -0.0792

Entry NC1(C(=O)N[C@@H](CCO)c2ccc(Cl)cc2)CCN(c2ncnc3[nH]ccc23)CC1 [Capivasertib] + C[C@@H]1COCCN1C2=NC(=NC(=C2)C3(CC3)[S@](=N)(=O)C)C4=C5C=CNC5=NC=C4 [AZD6738] (first compound max 10 µM, 7x7, partner max 10 µM) ; Bliss excess = -0.0197

Documented Bliss excess of Cn1cnc2c(F)c(Nc3ccc(Br)cc3Cl)c(C(=O)NOCCO)cc21 [Selumetinib] + C[C@@H]1COCCN1C2=NC(=NC(=C2)C3(CC3)[S@](=N)(=O)C)C4=C5C=CNC5=NC=C4 [AZD6738] (first compound max 10 µM, 7x7, partner max 10 µM) : 0.0148

----------
- Tested on: EBC-1 (Squamous Cell Lung Carcinoma)
- TEST METHOD NOTES: combination Emax (second highest fraction inhibited in the dose matrix, 72 h); higher = more inhibition; extreme values may be limits of the assay
Please go through the items and note down their combination Emax.
Could you keep your reply to the number by itself?

The compound CC1(C)CCC(CN2CCN(c3ccc(C(=O)NS(=O)(=O)c4ccc(NCC5CCOCC5)c([N+](=O)[O-])c4)c(Oc4cnc5[nH]ccc5c4)c3)CC2)=C(c2ccc(Cl)cc2)C1 [Venetoclax] + Cn1cnc2c(F)c(Nc3ccc(Br)cc3Cl)c(C(=O)NOCCO)cc21 [Selumetinib] (first compound max 1 µM, 7x7, partner max 3 µM) showed combination Emax equal to 0.768

Record CC1(C)CCC(CN2CCN(c3ccc(C(=O)NS(=O)(=O)c4ccc(NCC5CCOCC5)c([N+](=O)[O-])c4)c(Oc4cnc5[nH]ccc5c4)c3)CC2)=C(c2ccc(Cl)cc2)C1 [Venetoclax] + C1CN(CCC1(C(=O)N[C@@H](CCO)C2=CC=C(C=C2)Cl)N)C3=NC=NC4=C3C=CN4 [Capivasertib] (first compound max 1 µM, 7x7, partner max 3 µM) , field combination Emax: 0.317

According to the records, this compound NC1(C(=O)N[C@@H](CCO)c2ccc(Cl)cc2)CCN(c2ncnc3[nH]ccc23)CC1 [Capivasertib] + CCN(CCO)CCCOc1ccc2c(Nc3cc(CC(=O)Nc4cccc(F)c4)[nH]n3)ncnc2c1 [AZD2811] (first compound max 10 µM, 7x7, partner max 1 µM) displays combination Emax of 0.395

Query C=CCn1c(=O)c2cnc(Nc3ccc(N4CCN(C)CC4)cc3)nc2n1-c1cccc(C(C)(C)O)n1 [AZD1775] + C1CN(CCC1(C(=O)N[C@@H](CCO)C2=CC=C(C=C2)Cl)N)C3=NC=NC4=C3C=CN4 [Capivasertib] (first compound max 3 µM, partner max 3 µM) yields combination Emax of 0.7

Input CN(C)CCCOc1ccc(-c2ccc3ncc4c(c3c2)n(C2CCOCC2)c(=O)n4C)cn1 [AZD0156] + C=CCn1c(=O)c2cnc(Nc3ccc(N4CCN(C)CC4)cc3)nc2n1-c1cccc(C(C)(C)O)n1 [AZD1775] (first compound max 1 µM, partner max 1 µM) . Output combination Emax: 0.165

Just so you know, measured combination Emax for CC1(C)CCC(CN2CCN(c3ccc(C(=O)NS(=O)(=O)c4ccc(NCC5CCOCC5)c([N+](=O)[O-])c4)c(Oc4cnc5[nH]ccc5c4)c3)CC2)=C(c2ccc(Cl)cc2)C1 [Venetoclax] + CCN(CCO)CCCOc1ccc2c(Nc3cc(CC(=O)Nc4cccc(F)c4)[nH]n3)ncnc2c1 [AZD2811] (first compound max 1 µM, 7x7, partner max 1 µM) came out at 0.225

The compound identified as COc1cccc(OCCCN)c1-c1cc(Nc2cnc(C#N)cn2)n[nH]1 [Prexasertib] + O=C(c1cc(Cc2n[nH]c(=O)c3ccccc23)ccc1F)N1CCN(C(=O)C2CC2)CC1 [Olaparib] (first compound max 1 µM, 7x7, partner max 10 µM) registered its combination Emax at 0.603

combination Emax reading for COc1nnc2ccc(N3CCC(c4ccc(OCCN5CCN(C)C(=O)[C@H]5C)cc4)CC3)nn12 [AZD5153] + C[C@@H]1COCCN1C2=NC(=NC(=C2)C3(CC3)[S@](=N)(=O)C)C4=C5C=CNC5=NC=C4 [AZD6738] (first compound max 1 µM, 7x7, partner max 10 µM) : 0.798

Lab note: measured combination Emax of Cn1cnc2c(F)c(Nc3ccc(Br)cc3Cl)c(C(=O)NOCCO)cc21 [Selumetinib] + CC(C)n1c(=O)n(C)c2cnc3cc(F)c(-c4ccc(OCCCN5CCCCC5)nc4)cc3c21 [AZD1390] (first compound max 10 µM, 7x7, partner max 0.3 µM) was 0.934

The recorded combination Emax for entry CC(=O)Nc1cccc(-n2c(=O)n(C3CC3)c(=O)c3c(Nc4ccc(I)cc4F)n(C)c(=O)c(C)c32)c1 [Trametinib] + Cc1nc(-c2cn3c(n2)-c2ccc(-c4cnn(C(C)(C)C(N)=O)c4)cc2OCC3)n(C(C)C)n1 [Taselisib] (first compound max 1 µM, 7x7, partner max 10 µM) equals 1

Consider Cc1c2c(nn1C)CSCc1cc(n(C)n1)CSc1cc(c3ccccc3c1)OCCCc1c(C(=O)O)n(C)c3c-2c(Cl)ccc13 [AZD5991] + CCN(CCO)CCCOc1ccc2c(Nc3cc(CC(=O)Nc4cccc(F)c4)[nH]n3)ncnc2c1 [AZD2811] (first compound max 1 µM, 7x7, partner max 1 µM) . Its measured combination Emax is 0.243

Value of measured combination Emax for the entry C=CCn1c(=O)c2cnc(Nc3ccc(N4CCN(C)CC4)cc3)nc2n1-c1cccc(C(C)(C)O)n1 [AZD1775] + C[C@@H]1COCCN1C2=NC(=NC(=C2)C3(CC3)[S@](=N)(=O)C)C4=C5C=CNC5=NC=C4 [AZD6738] (first compound max 1 µM, partner max 10 µM) : 0.616

FYI, the data here is from the supplement of paper PMC11061612.
